- System: SK-MEL-2 melanoma
- assay_comment: NCI-60 one-dose screen, 48 h
- condition_description: 10 µM unless noted
This is part of a sample that, as a whole, favours compounds with a hit. Of some 83,000 tested, about 20% had one in any assay. Calls of active or inactive are those of the source. How the source made its calls: active means growth percent below 10; inactive means the rest.
Labels: yes (1) = active, no (0) = inactive

compound	qualitative_label
Cc1cccc(-c2nc(N(C)c3ccc4ncsc4c3)c3ccccc3n2)n1	no (0)
CC(C)(C)C(CCc1ccc(Cl)cc1)N1CCN(C2CCCCC2)CC1 (stereo not given)	no (0)
Cc1cc(NCc2cc(Nc3ccnc4cc(Cl)ccc34)ccc2F)nc(N2CCOCC2)n1	no (0)
CCN1C(=O)N(CC)C2Nn3c(s/c(=C4\C(=O)N(C)c5ccccc54)c3=O)=NC21 (stereo not given)	no (0)
Cc1ccc(N(C(=O)CCc2c[nH]c3ccccc23)[C@H](C(=O)Nc2ccc(Cl)cc2)c2cccc([N+](=O)[O-])c2)cc1	no (0)
COc1ccc(S(=O)(=O)NCCNc2nccc(-c3c(-c4cccc(F)c4)nc4sccn34)n2)cc1	no (0)
O=C(CSc1nccc(Nc2ccc(S(=O)(=O)Nc3nccs3)cc2)n1)c1ccc(F)cc1	no (0)
O=C(CCCCCCN1CC(=O)N2[C@@H](c3ccccc3Cl)c3[nH]c4ccccc4c3C[C@H]2C1=O)NO	no (0)
Cc1cc(NCc2cc(Nc3ccnc4cc(Cl)ccc34)ccc2F)nc(N2CCCC2)n1	no (0)
O=C1N=c2cc3c(cc2=C/C1=C/c1sc(=S)n(CCc2ccc(O)cc2)c1O)OCCO3	no (0)
CC(C)CCC[C@@H](C)[C@H]1CC[C@H]2[C@@H](Nc3ccc(O)cc3)CCC[C@]12C	no (0)
COc1cccc(-c2nc3sccn3c2/C=C/C(=O)c2ccc(C(F)(F)F)cc2)c1	no (0)
O=C(c1ccc(Nc2nccc(NCCCCNc3ccnc4cc(Cl)ccc34)n2)cc1)N1CCCCC1	no (0)
COc1cccc(-c2nc3sccn3c2-c2ccnc(NCCNS(=O)(=O)c3ccc(C(F)(F)F)cc3)c2)c1	no (0)
O=C1Nc2ccccc2/C1=C/c1cn(C(=O)c2ccc(Cl)cc2)c2ccccc12	no (0)
C(=N\Nc1ncc(-c2cc3cc4c(cc3o2)OCO4)s1)/c1ccco1	no (0)
COC(=O)c1ccc(C2Nc3ccc(S(=O)(=O)Nc4ccc(C)c(C)c4)cc3C3OCCC23)cc1 (stereo not given)	no (0)
COc1cccc(-c2nc3sccn3c2-c2ccnc(NCCNS(=O)(=O)c3cccc(F)c3)c2)c1	no (0)
COc1cc(Cn2ncc3ccc(NC(=O)c4cc5ccccc5oc4=N)cc32)cc(OC)c1OC	no (0)
O=C(c1ccccc1)c1c(/C=C/c2ccccc2)nc2ccccc2c1/C=C/c1ccc(Br)cc1	no (0)
CCN(CC)c1nc(SCC(=O)Nc2nc3ccc(C)cc3s2)nc(-c2ccccc2)c1C#N	no (0)
C[n+]1cc2cc(C(N)=O)[nH]c3c(=N)c(Cl)c(N)c1c23	no (0)
O=C(Nc1cccc2c(O)c(N=Nc3ccc(S(=O)(=O)Nc4nccs4)cc3)cc(N=Nc3ccc(S(=O)(=O)Nc4nccs4)cc3)c12)C(Cl)Cl	no (0)
NC(=N\N=C/c1cccc([N+](=O)[O-])c1)/C(N)=N\N=C/c1cccc([N+](=O)[O-])c1	no (0)
Cc1ccc2nc(NC(=O)CSc3nc(Nc4ccc([N+](=O)[O-])cc4)c(C#N)c(-c4ccccc4)n3)sc2c1	no (0)
COC(=O)[C@]12CC[C@@H](C)[C@H](C)[C@@H]1C1=CC[C@@H]3[C@@]4(C)C(C=O)=C[C@@](C)(COS(C)(=O)=O)C4[C@H](O)C[C@@]3(C)[C@]1(C)CC2 (stereo not given in full)	yes (1)
CCn1c(C)nc2cc(C(N)=O)ccc21	no (0)
C=CCOC1=CC(=O)c2ccccc2C1=O	no (0)
Cc1cc(=O)oc2c1ccc1oc(C#N)c(C)c12	no (0)
O=c1c2cc(F)ccc2sc2c(NCCCN3CCCC3)nc3ccccc3c12	no (0)

###

# key: entry, value: growth
- System: SK-MEL-2 melanoma
- assay_comment: NCI-60 one-dose screen, 48 h (100 = growth as untreated, 0 = no growth, -100 = all killed)
- condition_description: 10 µM unless noted
Compounds without any hit were thinned out: in the full panel of roughly 83,000, 20% have a hit.

structure_as_smiles	growth [%]
COc1c(CCC[P+](c2ccccc2)(c2ccccc2)c2ccccc2)cc2c(c1OC)OCO2	-24.2
COc1ccc(OC)c2c1[nH]c(=O)c1c3ncccc3cn21	65.6
C=C1C(=O)O[C@H]2[C@H]1CC/C(COC(=O)C(=O)c1c[nH]c3ccccc13)=C\CC[C@@]1(C)O[C@@H]21	-57.5
Cc1cc(Cl)nc(NCc2cc(Nc3ccnc4cc(Cl)ccc34)ccc2F)n1	77.1
N#Cc1c(-c2ccccn2)[nH]c(=S)[nH]c1=O	93.7
COc1ccc(CN2C(=O)C(Cl)=C(Nc3cccc(C(F)(F)F)c3)C2=O)cc1	81.7

###

# key: entry, value: growth
- Tested on: SK-OV-3 ovarian
- assay_comment: NCI-60 one-dose screen, 48 h (100 = growth as untreated, 0 = no growth, -100 = all killed)
- condition_description: 10 µM unless noted
About 83,000 compounds went through this panel and 20% of them were active in at least one assay; those are over-represented in the sample as a whole.

structure_as_smiles	units_label	growth
Cc1ccc(C(=O)COc2cccc(/C=C3\Oc4ccccc4C3=O)c2)cc1	%	134
CN(C)c1ccc(-c2cc(-c3ccc(Nc4nc(Nc5ccc(Cl)cc5)nc(Nc5ccc(Cl)cc5)n4)cc3)no2)cc1	%	80.1
Cc1ccc(S(=O)(=O)NCC[C@@H]2C[C@H]2c2cc3ccccc3s2)cc1	%	107

###

- System: MDA-MB-435 melanoma
- assay_comment: NCI-60 one-dose screen, 48 h
- condition_description: 10 µM unless noted
- Procedure: Growth inhibition of the MDA-MB-435 human Melanoma tumor cell line is measured as a screen for anti-cancer activity. Cells are grown in 96 well plates and exposed to the test compound for 48 hours. Compounds are tested at a single concentration, which is 10^-5 M for most compounds. The reported endpoint is percent growth (GI% or GIPRCNT), where numbers from 0 - 100% represent growth inhibition, and numbers from -100% - 0 represent cell death. […]
The panel holds about 83,000 compounds, 20% with a hit somewhere; the sample as a whole holds those more often. Activity calls are given as the source filed them. How the source made its calls: active means growth percent below 10; inactive means the rest.
Labels: active, inactive

molecule	system_under_test	qualitative_label
CC1=CN2C(=O)C3C4=C(CCCC4)SC3N=C2CN1c1c(C)cccc1C (configuration not stated)	MDA-MB-435 melanoma	inactive
CC(C)(C)C(CCc1ccc(Cl)cc1)N1CCN(C2CCCCC2)CC1 (configuration not stated)	MDA-MB-435 melanoma	inactive
COC(=O)[C@]12CC[C@@H](C)[C@H](C)[C@@H]1C1=CC[C@@H]3[C@@]4(C)C(C=O)=C[C@@](C)(COS(C)(=O)=O)[C@@H]4C(=O)C[C@@]3(C)[C@]1(C)CC2	MDA-MB-435 melanoma	inactive
Cc1cc(NCc2cc(Nc3ccnc4cc(Cl)ccc34)ccc2F)nc(N2CCN(c3ccccc3)CC2)n1	MDA-MB-435 melanoma	inactive
CCC(CO)Nc1nc2ccc(Cl)cc2c2ccccc12 (configuration not stated)	MDA-MB-435 melanoma	inactive
COC(=O)[C@]12CC[C@@H](C)[C@H](C)[C@@H]1C1=CC[C@@H]3[C@@]4(C)C(C=O)=C[C@@](C)(COC(C)=O)C4=CC[C@@]3(C)[C@]1(C)CC2	MDA-MB-435 melanoma	active
COc1ccc(-c2cc(-c3ccc(Nc4nc(Nc5ccc(Cl)cc5)nc(Nc5ccc(Cl)cc5)n4)cc3)nc(N)c2C#N)cc1	MDA-MB-435 melanoma	active
Cc1ccc(-c2cc3c(cc2O)C2CCCCC2(N2CCOCC2)O3)cc1 (configuration not stated)	MDA-MB-435 melanoma	inactive
O=c1[nH][n+](-c2ccc(Cl)cc2)no1	MDA-MB-435 melanoma	inactive
O=C1/C(=C/c2ccc(F)cc2)C=C(c2ccccc2)N1CCc1ccccc1	MDA-MB-435 melanoma	inactive
Cc1ccc(Nc2nc(N)nc(CSCC(=O)NN)n2)cc1	MDA-MB-435 melanoma	inactive
COc1cccc(-c2nn(-c3ccccc3)cc2-c2ccnc(NCCCNC(=O)Nc3ccc(Cl)c(Cl)c3)c2)c1	MDA-MB-435 melanoma	active
Cc1c(C(=O)NC(Cc2ccccc2)C(O)C(=O)NCc2ccc(F)cc2)[nH]c2ccccc2c1=O (configuration not stated)	MDA-MB-435 melanoma	inactive
COc1ccc(Cl)cc1NC(=O)C(Br)C(Br)C(=O)O (configuration not stated)	MDA-MB-435 melanoma	inactive
CCN(CC)CCCNc1ccc(Nc2ccc(OC)cc2)cc1	MDA-MB-435 melanoma	inactive
COc1cc2c(cc1-c1c(C)noc1C)ncc1nc(C3CCC(F)(F)CC3)n(C3CCC(OC(F)F)CC3)c12 (configuration not stated)	MDA-MB-435 melanoma	inactive
COCN1CCC2N(COC)CCC3N(COC)CCC1N23 (configuration not stated)	MDA-MB-435 melanoma	inactive
CC(C)(C)CC(C)(C)Nc1c(-c2ccncc2)nc2cnccn12	MDA-MB-435 melanoma	inactive
N#Cc1c(N)nc2c(C#N)c(NC(=O)c3ccccc3)nn2c1-c1ccccc1	MDA-MB-435 melanoma	inactive
Fc1cnc(NC2CC2)nc1-c1cnc2ccc(N3CCOCC3)cn12	MDA-MB-435 melanoma	active
COc1cccc(-c2nc3sccn3c2/C=C/C(=O)c2ccc(C(F)(F)F)cc2)c1	MDA-MB-435 melanoma	inactive
CCOc1ccccc1-c1cc(-c2cccs2)c(C#N)c(=O)[nH]1	MDA-MB-435 melanoma	inactive
CCN1C(=O)N(CC)C2C1NN=c1s/c(=C\c3cccs3)c(=O)n12 (configuration not stated)	MDA-MB-435 melanoma	active
O=C(NC(CSSCC(NC(=O)c1ccccc1)C(=O)O)C(=O)O)c1ccccc1 (configuration not stated)	MDA-MB-435 melanoma	inactive
COc1cc(/C=N/Nc2ncc(-c3cc4cc5c(cc4o3)OCO5)s2)cc(OC)c1OC	MDA-MB-435 melanoma	inactive
O=S(=O)(Nc1cccc(Cl)c1)c1ccc(-c2cnc(C3CC3)o2)cc1	MDA-MB-435 melanoma	active
Cc1ccc(N2CCN(C(=S)c3cccs3)CC2)cc1	MDA-MB-435 melanoma	inactive
Cc1ccc(S(=O)(=O)NCC[C@@H]2C[C@H]2c2cc3ccccc3s2)cc1	MDA-MB-435 melanoma	inactive
O=c1c2c3c(sc2n2c(-c4cc(-c5ccccc5)nn4-c4ccccc4)nnc2n1Cc1ccccc1)CCCC3	MDA-MB-435 melanoma	inactive
COc1cccc(-c2nn(-c3ccccc3)cc2-c2ccnc(NCCCNC(=O)c3cccc(C(F)(F)F)c3)c2)c1	MDA-MB-435 melanoma	inactive
FC(F)(F)c1cc(Nc2ccc3cc(OCCCN4CCOCC4)ccc3n2)ccc1Cl	MDA-MB-435 melanoma	inactive
COc1ccc(OC)c(-c2c(C#N)c(-c3ccc(Cl)cc3)nc3c2c(-c2ccccc2)nn3-c2ccccc2)c1	MDA-MB-435 melanoma	inactive

These data points were gathered from PubChem BioAssay (NCI).
